Molecular target: Transforming acidic coiled-coil-containing protein 3 (Homo sapiens)
Test: inhibition of ARNT PAS-B/TACC3 complex formation – biochemical, AlphaScreen, cherry-picked samples, confirmation (AID 651703);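 further: TACC3 partner is the GST-tagged E629A mutant dimer; hits lower the signal meaning they disrupt ARNT binding to TACC3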
Conditions: AlphaScreen His-ARNT PAS-B / GST-TACC3 binding, luminescence
# AC50 listing for each entry below

See these solved cases before continuing.
C=CCNc1nc(-c2ccccn2)nnc1-c1ccccc1: < 0.5 µM
CN1CCN(C(c2ccccn2)c2cc(Cl)c3cccnc3c2O)CC1 (stereo not given): 3.98 µM
CCOc1ccc(N(CC(=O)Nc2ccc(OC)cc2OC)S(=O)(=O)c2c(C)[nH]c(=O)[nH]c2=O)cc1: 27.6 µM
c1ccc(-c2cccc(CNc3nc(-c4ccccn4)nnc3-c3ccccc3)c2)cc1: 2.28 µM
CCOC(=O)c1cnc(-n2[nH]c(C)cc2=O)[nH]c1=O: 0.754 µM

Recorded AC50 of c1ccc(-c2nnc(-c3ccccn3)nc2N2CCC(C3CCCCC3)C2)cc1 (stereo not given) , please.
2.68 µM

// next record N#CC1(c2ccccc2)CCN(Cc2ccc(O)c3ncccc23)CC1
3.66 µM
